assay-explanation: Bioavailability of CTO given orally as solid in capsule or as liquid in PEG-400; CAI in plasma by HPLC/MS
Type: in vivo, dogs
test-context: female, dog, plasma, po, 685 mg/kg, oral gavage in PEG400, single dose 685 mg/kg, female dog
endpoint: Cmax (ng/mL)

compound-structure-string: NC(=O)c1nnn(Cc2cc(Cl)c(C(=O)c3ccc(Cl)cc3)c(Cl)c2)c1N
endpoint: Cmax
result-value: 5350

----------
assay-explanation: CTO concentration (as CAI) in brain tissue after oral dosing
Format: in vivo, mice
test-context: mouse, CTO 513 mg/kg orally in PEG400, mice, eight hours after treatment, read-out: CAI levels in brain tissue
endpoint: concentration at 8 h (ng/g)

compound: NC(=O)c1nnn(Cc2cc(Cl)c(C(=O)c3ccc(Cl)cc3)c(Cl)c2)c1N [CTO]
result-value: 15200
